Quick reference for EC50 (cAMP production) among some binders
# test.target: T1, human amylin receptor (calcitonin receptor co-expressed with receptor activity modifying protein, RAMP3) (human, UniProt P30988 25-474; O60896 24-148)
# T1 sequence (looked up) 1: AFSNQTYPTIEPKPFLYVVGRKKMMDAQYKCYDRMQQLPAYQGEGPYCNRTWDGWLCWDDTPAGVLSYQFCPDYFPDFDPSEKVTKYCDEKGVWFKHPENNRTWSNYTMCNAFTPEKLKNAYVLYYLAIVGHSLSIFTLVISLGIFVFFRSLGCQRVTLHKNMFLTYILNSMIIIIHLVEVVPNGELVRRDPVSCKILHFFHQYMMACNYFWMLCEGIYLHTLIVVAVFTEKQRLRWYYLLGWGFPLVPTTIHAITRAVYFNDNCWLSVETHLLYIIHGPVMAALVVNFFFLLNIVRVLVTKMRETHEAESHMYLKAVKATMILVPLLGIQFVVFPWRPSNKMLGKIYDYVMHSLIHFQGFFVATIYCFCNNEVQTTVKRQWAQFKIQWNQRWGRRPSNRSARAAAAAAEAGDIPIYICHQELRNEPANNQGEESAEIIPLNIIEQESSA
# T1 sequence (looked up) 2: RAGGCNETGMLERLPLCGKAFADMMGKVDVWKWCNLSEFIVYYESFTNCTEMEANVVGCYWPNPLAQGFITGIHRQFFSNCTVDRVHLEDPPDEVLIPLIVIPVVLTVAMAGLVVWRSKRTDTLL
# protocol.details: cell-based or functional assay
Numbered stars: 1 amine (or outer) side, 2 acyl side, 3 side chain; on linkers, the order of the positions; unused ones are H or OH. Bridge positions count the residues as written; N and C are the ends. Square brackets hold non-standard residues; d marks the D form. Side chains are listed from the residue outwards. Ends that are not written are not given here. * marks the point of attachment. C20 diacid = O=C(O)CCCCCCCCCCCCCCCCCCC(=O)*; C18 diacid = O=C(O)CCCCCCCCCCCCCCCCC(=O)*; γGlu = O=C(O)[C@H](CCC(=O)[*:2])N[*:1]; αMeF = C[C@](N)(Cc1ccccc1)C(=O)O; αMeS = C[C@](N)(CO)C(=O)O; AEEA = NCCOCCOCC(=O)O
measurement.kind: EC50 (cAMP production) (nM)

{C20 diacid-γGlu-AEEA-AEEA}-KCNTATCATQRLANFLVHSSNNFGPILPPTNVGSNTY-NH2 (disulfide 2-7) [Peptide 113 (SEQ ID NO: 113)] :: 1.17
K([γGlu-γGlu-C18 diacid])CNTATCATQRLANFLVHSSNNFGPILPPTNVGSNTY-NH2 (disulfide 2-7) [Peptide 5 (SEQ ID NO: 5)] :: 0.174
K([γGlu-γGlu-C18 diacid])CNTATCATQRLANFLVHS[αMeS]NNFGPILPPTNVGSNTY-NH2 (disulfide 2-7) [Peptide 22 (SEQ ID NO: 22)] :: 0.162
K([AEEA-AEEA-γGlu-C18 diacid])GGGKCNTATCATQRLANFLVHSSNNFGPILPPTNVGSNTY-NH2 (disulfide 6-11) [Peptide 7 (SEQ ID NO: 7)] :: 0.173
{C20 diacid-γGlu}-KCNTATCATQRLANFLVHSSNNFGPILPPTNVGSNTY-NH2 (disulfide 2-7) [Peptide 112 (SEQ ID NO: 112)] :: 0.861
{C18 diacid}-[γGlu][γGlu]GGGKCNTATCATQRLANFLVHSSNNFGPILPPTNVGSNTY-NH2 (disulfide 7-12) [Peptide 4 (SEQ ID NO: 4)] :: 0.248
K([γGlu-C18 diacid])CNTATCATQRLANFLVHSSNNFGPIL[dP]PTNVGSNTY-NH2 (disulfide 2-7) [Peptide 104 (SEQ ID NO: 104)] :: 0.079
K([γGlu-C18 diacid])CNTATCATQRLANFLVHSSNNFGPI[dL]PPTNVGSNTY-NH2 (disulfide 2-7) [Peptide 103 (SEQ ID NO: 103)] :: 0.161
{C18 diacid-γGlu}-CNTATCATQRLAEFLRHSSNN[αMeF]GPILPPTNVGSNTY-NH2 (disulfide 1-6; numbers in words are those of the source; also: K1 deleted) [Peptide 10 (SEQ ID NO: 10)] :: 0.183
K([AEEA-AEEA-γGlu-C18 diacid])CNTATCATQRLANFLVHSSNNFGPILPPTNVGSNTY-NH2 (disulfide 2-7) [Peptide 6 (SEQ ID NO: 6)] :: 0.068
K([γGlu-C18 diacid])KCNTATCATQRLANFLVHSSNN[αMeF]GPILPPTNVGSNTY-NH2 (disulfide 3-8) [Peptide 14 (SEQ ID NO: 14)] :: 0.22
